Molecular target: 5-hydroxytryptamine receptor 1A (Homo sapiens); further: assay procedure not described here
Sequence (P08908 whole entry): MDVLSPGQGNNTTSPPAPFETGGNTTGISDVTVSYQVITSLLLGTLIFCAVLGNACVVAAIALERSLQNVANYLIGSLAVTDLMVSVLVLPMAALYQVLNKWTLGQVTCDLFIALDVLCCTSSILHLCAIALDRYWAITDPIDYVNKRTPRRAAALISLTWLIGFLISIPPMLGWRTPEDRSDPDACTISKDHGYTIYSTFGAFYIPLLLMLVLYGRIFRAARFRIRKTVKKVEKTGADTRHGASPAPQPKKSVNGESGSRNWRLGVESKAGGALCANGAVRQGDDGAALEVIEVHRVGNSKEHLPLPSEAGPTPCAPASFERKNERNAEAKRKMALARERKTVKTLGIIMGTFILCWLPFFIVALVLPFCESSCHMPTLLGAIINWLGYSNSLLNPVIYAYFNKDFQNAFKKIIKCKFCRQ
Assay type: functional, cell-based
Endpoint Label: AC50

[[record]]
molecule = "CC1CC(OC(=O)C(O)c2ccccc2)CC(C)(C)C1 (stereo unspecified) [CYCLANDELATE]"
assayed_target = "5-hydroxytryptamine receptor 1A (Homo sapiens)"
endpoint_label = "AC50"
assay_value = "> 10 µM"

[[record]]
molecule = "CN(C)CCCC1(c2ccc(F)cc2)OCc2cc(C#N)ccc21 (stereo unspecified)"
assayed_target = "5-hydroxytryptamine receptor 1A (Homo sapiens)"
endpoint_label = "AC50"
assay_value = "> 10 µM"

[[record]]
molecule = "CO[C@@H]1[C@@H](OC(N)=O)[C@@H](O)[C@H](Oc2ccc3c(O)c(NC(=O)c4ccc(O)c(CC=C(C)C)c4)c(=O)oc3c2C)OC1(C)C"
assayed_target = "5-hydroxytryptamine receptor 1A (Homo sapiens)"
endpoint_label = "AC50"
assay_value = "> 30 µM"

[[record]]
molecule = "CCCCCCCC(=O)CC[C@@H]1[C@@H](C/C=C\\CCCC(=O)O)[C@@H](O)C[C@H]1O"
assayed_target = "5-hydroxytryptamine receptor 1A (Homo sapiens)"
endpoint_label = "AC50"
assay_value = "> 30 µM"

[[record]]
molecule = "COC(=O)CCc1ccc(OCC(O)CNC(C)C)cc1 (stereo unspecified)"
assayed_target = "5-hydroxytryptamine receptor 1A (Homo sapiens)"
endpoint_label = "AC50"
assay_value = "> 30 µM"

[[record]]
molecule = "Cc1c(C)c2c(c(C)c1O)CCC(C)(COc1ccc(CC3SC(=O)NC3=O)cc1)O2 (stereo unspecified)"
assayed_target = "5-hydroxytryptamine receptor 1A (Homo sapiens)"
endpoint_label = "AC50"
assay_value = "> 30 µM"


Reference for the values: ChEMBL document CHEMBL5291721
